Assign pIC50 to each entry below.
Assayed target: UniProtKB P08581
Sequence (P08581 with tags, fused parts or gaps): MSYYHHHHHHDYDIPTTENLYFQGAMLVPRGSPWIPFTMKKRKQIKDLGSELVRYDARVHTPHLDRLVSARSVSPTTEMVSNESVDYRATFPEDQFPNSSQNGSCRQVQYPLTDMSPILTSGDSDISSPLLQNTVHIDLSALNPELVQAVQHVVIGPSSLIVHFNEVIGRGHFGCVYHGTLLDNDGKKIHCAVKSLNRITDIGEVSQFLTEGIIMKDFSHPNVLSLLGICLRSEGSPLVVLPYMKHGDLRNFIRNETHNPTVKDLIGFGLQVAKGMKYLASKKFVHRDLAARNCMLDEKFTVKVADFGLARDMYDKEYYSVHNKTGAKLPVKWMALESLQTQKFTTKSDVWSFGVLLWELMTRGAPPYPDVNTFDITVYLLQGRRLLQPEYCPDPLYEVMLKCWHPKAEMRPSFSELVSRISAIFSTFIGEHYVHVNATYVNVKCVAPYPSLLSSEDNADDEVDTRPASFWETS
Assay method text: c-MET Kinase Assay (ADP production, pyruvate kinase/lactate dehydrogenase coupled)
Setup conditions: read-out: cMET Enzyme Assay
pIC50: −log10 of the molar value.

So for Cc1nn(C)cc1-c1cc(Oc2cc(F)c(NC(=O)C3(C(=O)Nc4ccc(F)cc4)CC3)cc2F)ccn1 , the logged pIC50 turned out to be > 6.70

So for Cn1cc(-c2cc(Oc3ccc(NC(=O)C4(C(=O)Nc5ccc(F)c(F)c5)CC4)c(F)c3)ccn2)cn1 , the logged pIC50 turned out to be > 5.70

So for Cc1cc(NC(=O)C2(C(=O)Nc3ccc(F)cc3)CC2)c(F)cc1Oc1ccnc(-c2cnn(C)c2)c1 , the logged pIC50 turned out to be > 6.70

So for Cn1cc(-c2ccnc(Oc3ccc(F)c(NC(=O)C4(C(=O)Nc5ccc(F)cc5)CC4)c3)n2)cn1 , the logged pIC50 turned out to be > 5.00

So for Cn1cc(-c2cc(Oc3ccc(NC(=O)C4(C(=O)Nc5ccc(F)c(C#N)c5)CC4)c(F)c3)ccn2)cn1 , the logged pIC50 turned out to be > 5.00

So for Cn1cc(-c2cc(Oc3ccc(NC(=O)C4(C(=O)Nc5ccc(C#N)cc5)CC4)c(F)c3)ccn2)cn1 , the logged pIC50 turned out to be > 5.00

So for O=C(Nc1ccc(F)cc1)C1(C(=O)Nc2ccc(Oc3ccnc(-c4cnn(CCO)c4)c3)c(F)c2)CC1 , the logged pIC50 turned out to be > 5.70

So for Cn1cc(-c2cc(Oc3ccc(NC(=O)C4(C(=O)Nc5ccc(C(F)(F)F)cc5)CC4)c(F)c3)ccn2)cn1 , the logged pIC50 turned out to be > 5.70

So for Cn1cc(-c2cc(Oc3ccc(NC(=O)C4(C(=O)Nc5ccc(F)cc5)CC4)nc3)ccn2)cn1 , the logged pIC50 turned out to be > 5.70

So for Cn1cc(-c2cc(Oc3ccc(NC(=O)C4(C(=O)Nc5ccc(F)cc5)CC4)cc3Cl)ccn2)cn1 , the logged pIC50 turned out to be > 6.70

So for Cc1cc(F)c(NC(=O)C2(C(=O)Nc3ccc(F)cc3)CC2)cc1Oc1nccc(-c2cn[nH]c2)n1 , the logged pIC50 turned out to be > 5.00

So for Cn1cc(-c2cc(Oc3ccc(NC(=O)C4(C(=O)Nc5ccc(Cl)cc5)CC4)c(F)c3)ccn2)cn1 , the logged pIC50 turned out to be > 5.70

So for Cc1c(Oc2ccnc(-c3cnn(C)c3)c2)ccc(NC(=O)C2(C(=O)Nc3ccc(F)cc3)CC2)c1F , the logged pIC50 turned out to be > 5.70

So for Cn1cc(-c2cc(Oc3ccc(NC(=O)C4(C(=O)Nc5ccc(F)cc5)CC4)c(F)c3F)ccn2)cn1 , the logged pIC50 turned out to be > 6.70

So for Cn1cc(-c2cc(Oc3ccc(NC(=O)C4(C(=O)Nc5ccc(F)cc5Cl)CC4)c(F)c3)ccn2)cn1 , the logged pIC50 turned out to be > 5.70

So for Cn1cc(-c2cc(Oc3ccc(NC(=O)C4(C(=O)Nc5cccs5)CC4)c(F)c3)ccn2)cn1 , the logged pIC50 turned out to be > 5.70

So for Cn1cc(-c2cc(Oc3ccc(NC(=O)C4(C(=O)Nc5ccc(F)cc5)CC4)cn3)ccn2)cn1 , the logged pIC50 turned out to be > 5.70

So for O=C(Nc1ccc(F)cc1)C1(C(=O)Nc2ccc(Oc3ccnc(-c4c[nH]nn4)c3)cc2F)CC1 , the logged pIC50 turned out to be > 5.70

So for Cn1cc(-c2cc(Oc3cc(F)c(NC(=O)C4(C(=O)Nc5ccc(F)cc5)CC4)cc3Cl)ccn2)cn1 , the logged pIC50 turned out to be > 6.70

So for Cn1cc(-c2cc(Oc3cc(F)c(NC(=O)NC(=O)Cc4ccc(F)cc4)cc3Cl)ccn2)cn1 , the logged pIC50 turned out to be > 6.70

So for Cn1cc(-c2cc(Oc3ccc(NC(=O)C4(C(=O)Nc5ccc(F)cc5F)CC4)c(F)c3)ccn2)cn1 , the logged pIC50 turned out to be > 5.70

So for Cc1ccc(NC(=O)C2(C(=O)Nc3ccc(Oc4ccnc(-c5cnn(C)c5)c4)cc3F)CC2)cc1 , the logged pIC50 turned out to be > 5.70

So for O=C(Nc1ccc(F)cc1)C1(C(=O)Nc2cc(Oc3nccc(-c4cn[nH]c4)n3)ccc2F)CC1 , the logged pIC50 turned out to be > 5.00

So for CN(C(=O)C1(C(=O)Nc2ccc(F)cc2)CC1)c1ccc(Oc2ccnc(-c3cnn(C)c3)c2)c(F)c1 , the logged pIC50 turned out to be > 5.00

So for Cn1cc(-c2cc(Oc3cc(F)c(NC(=O)C4(C(=O)Nc5ccccc5)CC4)cc3F)ccn2)cn1 , the logged pIC50 turned out to be > 6.70

So for Cc1c(-c2cc(Oc3cc(F)c(NC(=O)C4(C(=O)Nc5ccc(F)cc5)CC4)cc3F)ccn2)cnn1C , the logged pIC50 turned out to be > 6.70

So for O=C(Nc1ccc(F)cc1)C1(C(=O)Nc2ccc(Oc3ccnc(-c4cn[nH]c4)c3)c(F)c2)CC1 , the logged pIC50 turned out to be > 6.70
